# Tested on: HIV
# ASSAY INFO: Table 1 IC50 of the examples (assay method not given; patent concerns inhibiting HIV replication)
# Type: cell-based
# RUN CONDITIONS: Human immunodeficiency virus 1
pIC50: −log10 of the molar value.
ENDPOINT: pIC50

Examples with their reported pIC50 follow.
MOLECULE	STUDY SYSTEM	ENDPOINT	EXPERIMENTAL RESULT
Cc1cc2c(c(-c3cc(F)c4c(c3C)CCCO4)c1[C@H](OC(C)(C)C)C(=O)O)CCN2C(=O)c1cc(F)ccc1F (atropisomer, axis not shown) [Example 109]	HIV	pIC50	7.96
Cc1cc2c(c(-c3cc(F)c4c(c3C)CCCO4)c1[C@H](OC(C)(C)C)C(=O)O)CCN2C(=O)C1CCC1 (atropisomer, axis not shown) [Example 161]	HIV	pIC50	7.09
COc1c(F)cccc1C(=O)N1CCc2c1cc(C)c([C@H](OC(C)(C)C)C(=O)O)c2-c1ccc2c(c1C)CCCO2 (atropisomer, axis not shown) [Example 181]	HIV	pIC50	8.70
Cc1cc2c(c(-c3cc(F)c4c(c3C)CCCO4)c1[C@H](OC(C)(C)C)C(=O)O)CCN2C(=O)c1cccc2c1CCO2 (atropisomer, axis not shown) [Example 177]	HIV	pIC50	8.70
Cc1cc2c(c(-c3cc(F)c4c(c3C)CCCO4)c1[C@H](OC(C)(C)C)C(=O)O)CCN2C(=O)c1cccnc1C (atropisomer, axis not shown) [Example 173]	HIV	pIC50	7.89

A: Cc1cc2c(c(-c3cc(F)c4c(c3C)CCCO4)c1[C@H](OC(C)(C)C)C(=O)O)CCN2C(=O)c1c(F)cccc1F (atropisomer, axis not shown) [Example 111]
B: Cc1ccc(-c2c3c(cc(C)c2[C@H](OC(C)(C)C)C(=O)O)N(C(=O)c2cccc(F)c2C)CC3)cc1 [Example 30]
C: Cc1ccc(-c2c3c(cc(C)c2C(OC(C)(C)C)C(=O)O)N(c2ccccc2)CCC3)cc1 (centres unmarked) [Example 211]
Ask: Rank the 3 molecules: largest pIC50 first, smallest last. Field: ranking. Enter the labels in the order requested.
Result: B, A, C

P: Cc1ccc(-c2c3c(cc(C)c2[C@H](OC(C)(C)C)C(=O)O)N(C(=O)Cc2ccc(F)c(F)c2)CC3)cc1 [Example 34]
Q: Cc1cc2c(c(-c3ccc4c(c3C)CCCO4)c1[C@H](OC(C)(C)C)C(=O)O)CCN2C(=O)c1cccc2c1OCCO2 (atropisomer, axis not shown) [Example 182]
R: COc1cnccc1C(=O)N1CCc2c1cc(C)c([C@H](OC(C)(C)C)C(=O)O)c2-c1cc(F)c2c(c1C)CCCO2 (atropisomer, axis not shown) [Example 171]
Ask: Rank the 3 molecules: largest pIC50 first, smallest last. Field: ranking. Enter the labels in the order requested.
Result: Q, R, P

----------
# Test system: HIV
# ASSAY INFO: Table 1 IC50 of the examples (assay method not given; patent concerns inhibiting HIV replication)
# Type: cell-based
# RUN CONDITIONS: Human immunodeficiency virus 1
ENDPOINT: IC50 (nM)

MOLECULE	STUDY SYSTEM	UNIT SYMBOL	IC50
Cc1cc2c(c(-c3cc(F)c4c(c3C)CCCO4)c1[C@H](OC(C)(C)C)C(=O)O)CCN2C(=O)c1ccc(Cl)cc1Cl (atropisomer, axis not shown)	HIV	nM	5

A: COc1ccc(C(=O)N2CCc3c2cc(C)c([C@H](OC(C)(C)C)C(=O)O)c3-c2cc(F)c3c(c2C)CCCO3)cc1C (atropisomer, axis not shown)
B: COc1ccc(C(=O)N2CCc3c2cc(C)c([C@H](OC(C)(C)C)C(=O)O)c3-c2ccc(C)cc2)cc1F
Ask: Field: entry with larger IC50 (options A / B ). Mark your answer with the label of the selected entry.
Result: B

----------
# Test system: HIV
# ASSAY INFO: Table 1 IC50 of the examples (assay method not given; patent concerns inhibiting HIV replication)
# Format: cell-based
# RUN CONDITIONS: Human immunodeficiency virus 1
pIC50: −log10 of the molar value.
ENDPOINT: pIC50

Examples with their reported pIC50 follow.
MOLECULE	STUDY SYSTEM	pIC50
Cc1cc2c(c(-c3cc(F)c4c(c3C)CCCO4)c1[C@H](OC(C)(C)C)C(=O)O)CCN2C(=O)c1ccco1 (atropisomer, axis not shown)	HIV	6.96
Cc1cc2c(c(-c3cc(F)c4c(c3C)CCCO4)c1[C@H](OC(C)(C)C)C(=O)O)CCN2C(=O)c1ccc(Cl)cc1C(F)(F)F (atropisomer, axis not shown)	HIV	8.30

A: COc1c(F)ccc(F)c1C(=O)N1CCc2c1cc(C)c([C@H](OC(C)(C)C)C(=O)O)c2-c1ccc(C)cc1
B: Cc1cc2c(c(-c3ccc4c(c3C)CCCO4)c1[C@H](OC(C)(C)C)C(=O)O)CCN2C(=O)c1cc(F)cc(F)c1 (atropisomer, axis not shown)
C: COc1ccc(C)cc1C(=O)N1c2cc(C)c([C@H](OC(C)(C)C)C(=O)O)c(-c3cc(F)c4c(c3C)CCCO4)c2CC1(C)C (atropisomer, axis not shown)
Ask: Rank the 3 molecules: largest pIC50 first, smallest last. Field: ranking. Enter the labels in the order requested.
Result: B, C, A

----------
# System: HIV
# ASSAY INFO: Table 1 IC50 of the examples (assay method not given; patent concerns inhibiting HIV replication)
# Format: cell-based
# RUN CONDITIONS: Human immunodeficiency virus 1
ENDPOINT: IC50 (nM)

MOLECULE	ENDPOINT	UNIT SYMBOL	EXPERIMENTAL RESULT
COc1ccc(C(=O)N2CCc3c2cc(C)c([C@H](OC(C)(C)C)C(=O)O)c3-c2cc(F)c3c(c2C)CCCO3)c(Cl)c1 (atropisomer, axis not shown)	IC50	nM	5

a: Cc1cc2c(c(-c3cc(F)c4c(c3C)CCCO4)c1[C@H](OC(C)(C)C)C(=O)O)CCN2C(=O)C1CCOC1 (some centres unmarked)
b: COc1c(Cl)cccc1C(=O)N1CCc2c1cc(C)c([C@H](OC(C)(C)C)C(=O)O)c2-c1cc(F)c2c(c1C)CCCO2 (atropisomer, axis not shown)
c: Cc1cc2c(c(-c3cc(F)c4c(c3C)CCCO4)c1[C@H](OC(C)(C)C)C(=O)O)CCN2C(=O)c1cccc(C(=O)N2CCCCC2)c1 (atropisomer, axis not shown)
Ask: Order the records, beginning with the lowest IC50 and ending with the highest. Field: ranking. Enter the labels in the order requested.
Result: b, c, a

----------
# System: HIV
# ASSAY INFO: Table 1 IC50 of the examples (assay method not given; patent concerns inhibiting HIV replication)
# Type: cell-based
# RUN CONDITIONS: Human immunodeficiency virus 1
pIC50: −log10 of the molar value.
ENDPOINT: pIC50

Examples with their reported pIC50 follow.
COMPOUND	pIC50
COc1ccc(C(=O)N2CCc3c2cc(C)c([C@H](OC(C)(C)C)C(=O)O)c3-c2cc(F)c3c(c2C)CCCO3)c(OC)c1OC (atropisomer, axis not shown) [Example 126]	8.30
COc1cc(C(=O)N2CCc3c2cc(C)c([C@H](OC(C)(C)C)C(=O)O)c3-c2cc(F)c3c(c2C)CCCO3)ccc1C(F)(F)F (atropisomer, axis not shown) [Example 176]	8.30

I: CNC(=O)c1cccc(C(=O)N2CCc3c2cc(C)c([C@H](OC(C)(C)C)C(=O)O)c3-c2cc(F)c3c(c2C)CCCO3)c1 (atropisomer, axis not shown) [Example 153]
II: Cc1cc2c(ccn2C(=O)c2ccc(F)c(F)c2)c(-c2cc(F)c3c(c2C)CCCO3)c1[C@H](OC(C)(C)C)C(=O)O (atropisomer, axis not shown) [Example 203]
III: Cc1ccc(-c2c3c(cc(C)c2C(OC(C)(C)C)C(=O)O)N(Cc2ccc(F)c(F)c2)CC3)cc1 (centres unmarked) [Example 1]
Ask: Order the records, beginning with the lowest pIC50 and ending with the highest. Field: ranking. Enter the labels in the order requested.
Result: III, I, II
(III: 6.29, I: 6.90, II: 7.80)

----------
# Tested on: HIV
# ASSAY INFO: Table 1 IC50 of the examples (assay method not given; patent concerns inhibiting HIV replication)
# Assay type: cell-based
# RUN CONDITIONS: Human immunodeficiency virus 1
pIC50: −log10 of the molar value.
ENDPOINT: pIC50

Examples with their reported pIC50 follow.
MOLECULE	pIC50
Cc1cc2c(c(-c3cc(F)c4c(c3C)CCCO4)c1[C@H](OC(C)(C)C)C(=O)O)CCN2C(=O)c1ccc(Cl)c(C(F)(F)F)c1 (atropisomer, axis not shown)	8.10
COc1cc(C(=O)N2CCc3c2cc(C)c([C@H](OC(C)(C)C)C(=O)O)c3-c2cc(F)c3c(c2C)CCCO3)cc(F)c1F (atropisomer, axis not shown)	8.22
Cc1cc2c(ccn2Cc2ccc(F)c(F)c2)c(-c2cc(F)c3c(c2C)CCCO3)c1[C@H](OC(C)(C)C)C(=O)O (atropisomer, axis not shown)	6.82

P: Cc1cc2c(c(-c3cc(F)c4c(c3C)CCCO4)c1[C@H](OC(C)(C)C)C(=O)O)CCN2C(=O)c1ccccc1Cl (atropisomer, axis not shown)
Q: Cc1cc2c(c(-c3cc(F)c4c(c3C)CCCO4)c1[C@H](OC(C)(C)C)C(=O)O)CCN2C(=O)c1cccc2c1OCC2 (atropisomer, axis not shown)
Ask: Identify the entry with the smaller pIC50: P or Q . Mark your answer with the label of the selected entry.
Result: Q
(Q: 8.30, P: 8.70)
